Test system: NCI/ADR-RES ovarian
Assay: NCI-60 one-dose screen, 48 h
Settings: 10 µM unless noted
About 83,000 compounds went through this panel and 20% of them were active in at least one assay; those are over-represented in the sample as a whole. Calls of active or inactive are those of the source. The calls were made as follows: active = growth percent below 10; inactive = the rest.
Give your call using only these classes: active, inactive

- Molecule: "CCC1=Cc2c(OC)cccc2OC12C=Cc1c(OC)cccc1O2 (stereo not drawn)"
  Tested Target: "NCI/ADR-RES ovarian"
  Label Class: "active"
- Molecule: "O=C(Nc1ccc(N=Cc2c(O)[nH]c3ccccc23)cc1)Nc1ccc(S(=O)(=O)Nc2ncccn2)cc1"
  Tested Target: "NCI/ADR-RES ovarian"
  Label Class: "inactive"
- Molecule: "Cc1csc(/N=C(N)/N=C(\\N)c2cccc(C#N)c2)n1"
  Tested Target: "NCI/ADR-RES ovarian"
  Label Class: "inactive"
- Molecule: "COc1cc2cc(Oc3ccc(NC(=O)Nc4ccc(F)c(C(F)(F)F)c4)cc3)c(C)nc2cc1OCCN(C)C"
  Tested Target: "NCI/ADR-RES ovarian"
  Label Class: "inactive"
- Molecule: "N#C/C(=C\\c1ccc(-c2ccc(Cl)c(Cl)c2)o1)C(=O)Nc1ncc(Cc2ccc(Cl)cc2)s1"
  Tested Target: "NCI/ADR-RES ovarian"
  Label Class: "inactive"

Task item: Fill in: this test's call for C/C(=N\NC(=O)Nc1ccccc1)c1nnn(-c2ccc([N+](=O)[O-])cc2)c1C is ___
Reply: inactive

Task item: // next record N#C/C(=C\c1ccc(-c2ccc(Cl)cc2)o1)C(=O)Nc1ncc(Cc2ccc(Br)cc2)s1
Reply: active

Task item: // next record CN1CCN(c2ccc(Nc3nc(NCCCNS(=O)(=O)c4ccc(F)cc4)c4sccc4n3)cc2)CC1
Reply: inactive

Task item: // next record O=C(CSc1nnc(-c2ccc(Cl)cc2)n1-c1ccccc1)Nc1ccccc1Cl
Reply: inactive

Task item: // next record COc1ccccc1/C=C1\Oc2ccc(O)c(O)c2C1=O
Reply: inactive

Task item: // next record Cn1ncc2c(C(=O)c3ccc(F)cc3)nc(C(C)(C)C)nc21
Reply: inactive

Task item: // next record CN1CCN(c2ccc(Nc3nc(NCCNS(=O)(=O)c4ccc(Cl)cc4)c4sccc4n3)cc2)CC1
Reply: inactive

Task item: // next record Cc1cc2nc(C(Cl)Cl)nc(-c3ccc(S(=O)(=O)N(C)C)cc3)n2n1
Reply: inactive

Origin of the recorded values: PubChem BioAssay (NCI)
